Tested on: IGROV1 ovarian
Assay Comment: NCI tumour cell line growth inhibition, 48 h
Measure Name: GI50

Compound	Value Measured
C[C@H]1c2ccccc2CN1CCCOc1cc2c(cc1OCC1CC1)C1(CCCC1)C(N)=N2	2270 nM
CN(c1ccc(C#N)c(Cl)c1)C1CCC(NC(=O)c2ccc(N3CCN(C4CN(c5ccc6c(c5)C(=O)N(C5CCC(=O)NC5=O)C6=O)C4)CC3)cc2)CC1 (configuration not stated)	> 100000 nM
Cc1oc2c(c1C(=O)N1CC[C@@H](N)C1)C(=O)c1c(c(O)c3ccccc3c1O)C2=O	1270 nM
CCN1C(=O)N(CC)C2C1NN=c1s/c(=C\c3ccc[nH]3)c(=O)n12 (configuration not stated)	838 nM
CCN(CC)CCCC(C)Nc1c(-c2ccccc2)cnc2cc(Cl)ccc12 (configuration not stated)	11800 nM
N/C(=N\c1nc2ccccc2s1)NC(=NC1CCCCC1)NC1CCCCC1	1460 nM
O=C(Nc1ccccc1Cl)c1cccc(NC2=C(Cl)C(=O)N(Cc3ccccc3)C2=O)c1	549 nM
